measurementParameters: in MIBK, 313.15 K
endpointLabel: solubility (mole fraction)
The response must contain the number and no unit.

Specify solubility (mole fraction) for N#Cc1c(Cl)c(Cl)c(Cl)c(C#N)c1Cl and stop.
0.00802

###

measurementParameters: in acetone, 308.15 K
endpointLabel: solubility (mole fraction)
The response must contain the number and no unit.

Specify solubility (mole fraction) for N#Cc1c(Cl)c(Cl)c(Cl)c(C#N)c1Cl and stop.
0.00682

###

measurementParameters: in n-propyl acetate, 288.15 K
endpointLabel: solubility (mole fraction)
The response must contain the number and no unit.

Specify solubility (mole fraction) for N#Cc1c(Cl)c(Cl)c(Cl)c(C#N)c1Cl and stop.
0.0033

###

measurementParameters: in THF, 323.15 K
endpointLabel: solubility (mole fraction)
The response must contain the number and no unit.

Specify solubility (mole fraction) for N#Cc1c(Cl)c(Cl)c(Cl)c(C#N)c1Cl and stop.
0.023

###

measurementParameters: in 1,4-dioxane, 303.15 K
endpointLabel: solubility (mole fraction)
The response must contain the number and no unit.

Specify solubility (mole fraction) for N#Cc1c(Cl)c(Cl)c(Cl)c(C#N)c1Cl and stop.
0.0118

###

measurementParameters: in DMAc, 293.15 K
endpointLabel: solubility (mole fraction)
The response must contain the number and no unit.

Specify solubility (mole fraction) for N#Cc1c(Cl)c(Cl)c(Cl)c(C#N)c1Cl and stop.
0.0191

###

measurementParameters: in acetone, 293.15 K
endpointLabel: solubility (mole fraction)
The response must contain the number and no unit.

Specify solubility (mole fraction) for N#Cc1c(Cl)c(Cl)c(Cl)c(C#N)c1Cl and stop.
0.00443

###

measurementParameters: in acetonitrile, 308.15 K
endpointLabel: solubility (mole fraction)
The response must contain the number and no unit.

Specify solubility (mole fraction) for N#Cc1c(Cl)c(Cl)c(Cl)c(C#N)c1Cl and stop.
0.00272

###

measurementParameters: in ethyl acetate, 303.15 K
endpointLabel: solubility (mole fraction)
The response must contain the number and no unit.

Specify solubility (mole fraction) for N#Cc1c(Cl)c(Cl)c(Cl)c(C#N)c1Cl and stop.
0.00496

###

measurementParameters: in acetonitrile, 293.15 K
endpointLabel: solubility (mole fraction)
The response must contain the number and no unit.

Specify solubility (mole fraction) for N#Cc1c(Cl)c(Cl)c(Cl)c(C#N)c1Cl and stop.
0.00161

###

measurementParameters: in DMAc, 288.15 K
endpointLabel: solubility (mole fraction)
The response must contain the number and no unit.

Specify solubility (mole fraction) for N#Cc1c(Cl)c(Cl)c(Cl)c(C#N)c1Cl and stop.
0.017

###

measurementParameters: in 1,4-dioxane, 293.15 K
endpointLabel: solubility (mole fraction)
The response must contain the number and no unit.

Specify solubility (mole fraction) for N#Cc1c(Cl)c(Cl)c(Cl)c(C#N)c1Cl and stop.
0.00951

###

measurementParameters: in THF, 303.15 K
endpointLabel: solubility (mole fraction)
The response must contain the number and no unit.

Specify solubility (mole fraction) for N#Cc1c(Cl)c(Cl)c(Cl)c(C#N)c1Cl and stop.
0.0137

###

measurementParameters: in n-propyl acetate, 318.15 K
endpointLabel: solubility (mole fraction)
The response must contain the number and no unit.

Specify solubility (mole fraction) for N#Cc1c(Cl)c(Cl)c(Cl)c(C#N)c1Cl and stop.
0.0079

###

measurementParameters: in acetonitrile, 298.15 K
endpointLabel: solubility (mole fraction)
The response must contain the number and no unit.

Specify solubility (mole fraction) for N#Cc1c(Cl)c(Cl)c(Cl)c(C#N)c1Cl and stop.
0.00193

###

measurementParameters: in cyclohexanone, 288.15 K
endpointLabel: solubility (mole fraction)
The response must contain the number and no unit.

Specify solubility (mole fraction) for N#Cc1c(Cl)c(Cl)c(Cl)c(C#N)c1Cl and stop.
0.0079

###

measurementParameters: in DMAc, 298.15 K
endpointLabel: solubility (mole fraction)
The response must contain the number and no unit.

Specify solubility (mole fraction) for N#Cc1c(Cl)c(Cl)c(Cl)c(C#N)c1Cl and stop.
0.0211

###

measurementParameters: in ethyl acetate, 313.15 K
endpointLabel: solubility (mole fraction)
The response must contain the number and no unit.

Specify solubility (mole fraction) for N#Cc1c(Cl)c(Cl)c(Cl)c(C#N)c1Cl and stop.
0.00643

###

measurementParameters: in acetonitrile, 323.15 K
endpointLabel: solubility (mole fraction)
The response must contain the number and no unit.

Specify solubility (mole fraction) for N#Cc1c(Cl)c(Cl)c(Cl)c(C#N)c1Cl and stop.
0.00462

###

measurementParameters: in THF, 318.15 K
endpointLabel: solubility (mole fraction)
The response must contain the number and no unit.

Specify solubility (mole fraction) for N#Cc1c(Cl)c(Cl)c(Cl)c(C#N)c1Cl and stop.
0.0208

###

measurementParameters: in DMF, 323.15 K
endpointLabel: solubility (mole fraction)
The response must contain the number and no unit.

Specify solubility (mole fraction) for N#Cc1c(Cl)c(Cl)c(Cl)c(C#N)c1Cl and stop.
0.0233

###

measurementParameters: in THF, 313.15 K
endpointLabel: solubility (mole fraction)
The response must contain the number and no unit.

Specify solubility (mole fraction) for N#Cc1c(Cl)c(Cl)c(Cl)c(C#N)c1Cl and stop.
0.0172

###

measurementParameters: in 1,4-dioxane, 288.15 K
endpointLabel: solubility (mole fraction)
The response must contain the number and no unit.

Specify solubility (mole fraction) for N#Cc1c(Cl)c(Cl)c(Cl)c(C#N)c1Cl and stop.
0.0082

###

measurementParameters: in ethyl acetate, 318.15 K
endpointLabel: solubility (mole fraction)

Specify solubility (mole fraction) for N#Cc1c(Cl)c(Cl)c(Cl)c(C#N)c1Cl and stop.
0.00744

###

measurementParameters: in DMAc, 318.15 K
endpointLabel: solubility (mole fraction)
The response must contain the number and no unit.

Specify solubility (mole fraction) for N#Cc1c(Cl)c(Cl)c(Cl)c(C#N)c1Cl and stop.
0.0334

###

measurementParameters: in ethyl acetate, 288.15 K
endpointLabel: solubility (mole fraction)
The response must contain the number and no unit.

Specify solubility (mole fraction) for N#Cc1c(Cl)c(Cl)c(Cl)c(C#N)c1Cl and stop.
0.00311

###

measurementParameters: in THF, 288.15 K
endpointLabel: solubility (mole fraction)
The response must contain the number and no unit.

Specify solubility (mole fraction) for N#Cc1c(Cl)c(Cl)c(Cl)c(C#N)c1Cl and stop.
0.00909

###

measurementParameters: in MIBK, 303.15 K
endpointLabel: solubility (mole fraction)
The response must contain the number and no unit.

Specify solubility (mole fraction) for N#Cc1c(Cl)c(Cl)c(Cl)c(C#N)c1Cl and stop.
0.00603

###

measurementParameters: in DMF, 308.15 K
endpointLabel: solubility (mole fraction)
The response must contain the number and no unit.

Specify solubility (mole fraction) for N#Cc1c(Cl)c(Cl)c(Cl)c(C#N)c1Cl and stop.
0.0155

###

measurementParameters: in n-propyl acetate, 293.15 K
endpointLabel: solubility (mole fraction)

Specify solubility (mole fraction) for N#Cc1c(Cl)c(Cl)c(Cl)c(C#N)c1Cl and stop.
0.00384

###

measurementParameters: in cyclohexanone, 313.15 K
endpointLabel: solubility (mole fraction)
The response must contain the number and no unit.

Specify solubility (mole fraction) for N#Cc1c(Cl)c(Cl)c(Cl)c(C#N)c1Cl and stop.
0.0154

###

measurementParameters: in THF, 293.15 K
endpointLabel: solubility (mole fraction)
The response must contain the number and no unit.

Specify solubility (mole fraction) for N#Cc1c(Cl)c(Cl)c(Cl)c(C#N)c1Cl and stop.
0.0102

###

measurementParameters: in DMF, 293.15 K
endpointLabel: solubility (mole fraction)
The response must contain the number and no unit.

Specify solubility (mole fraction) for N#Cc1c(Cl)c(Cl)c(Cl)c(C#N)c1Cl and stop.
0.0111

###

measurementParameters: in DMF, 318.15 K
endpointLabel: solubility (mole fraction)
The response must contain the number and no unit.

Specify solubility (mole fraction) for N#Cc1c(Cl)c(Cl)c(Cl)c(C#N)c1Cl and stop.
0.0197

###

measurementParameters: in 1,4-dioxane, 298.15 K
endpointLabel: solubility (mole fraction)
The response must contain the number and no unit.

Specify solubility (mole fraction) for N#Cc1c(Cl)c(Cl)c(Cl)c(C#N)c1Cl and stop.
0.0109

###

measurementParameters: in 1,4-dioxane, 308.15 K
endpointLabel: solubility (mole fraction)
The response must contain the number and no unit.

Specify solubility (mole fraction) for N#Cc1c(Cl)c(Cl)c(Cl)c(C#N)c1Cl and stop.
0.0136

###

measurementParameters: in cyclohexanone, 298.15 K
endpointLabel: solubility (mole fraction)
The response must contain the number and no unit.

Specify solubility (mole fraction) for N#Cc1c(Cl)c(Cl)c(Cl)c(C#N)c1Cl and stop.
0.0106

###

measurementParameters: in MIBK, 288.15 K
endpointLabel: solubility (mole fraction)
The response must contain the number and no unit.

Specify solubility (mole fraction) for N#Cc1c(Cl)c(Cl)c(Cl)c(C#N)c1Cl and stop.
0.00381

###

measurementParameters: in acetone, 318.15 K
endpointLabel: solubility (mole fraction)
The response must contain the number and no unit.

Specify solubility (mole fraction) for N#Cc1c(Cl)c(Cl)c(Cl)c(C#N)c1Cl and stop.
0.00932
